- System: FGR;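 note: KINOMEscan kinase panel screen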
- setupConditions: concentration: 1 μM, replicates: in singlicate; n = 1
readoutKind: %Inh (%)
Give your result in % as a bare value.

## Input Which %Inh reading was recorded for the compound Cl.c1ccc(Cn2cnc3cc(Nc4ncnc5ccccc45)ccc32)cc1 ?
## Output 23

## Input Data request, read-out %Inh, for COC(=O)c1c(-c2ccccc2)c2cc(Br)ccc2c(=O)n1Cc1ccc(NC(=O)CCC(=O)O)cc1
## Output 8

## Input For the compound Cc1nnc(-c2ccc3ncn(-c4ccc(S(C)=O)cc4)c3c2)o1 (centres unmarked) , what %Inh is on record?
## Output 18

## Input Consider the compound CCn1c(-c2nonc2N)nc2ccccc21 and give its measured %Inh.
## Output 0

## Input # input compound: Cc1cc(Nc2nc(-c3cccc(C)n3)nc3ccccc23)ccn1 ; wanted: its %Inh
## Output 0
